system: T1, FZD3 cysteine-rich domain (CRD), MYC-tagged and GPI-anchored on CHO cells (human, UniProt Q9NPG1 24-150, GPI anchor)
T1 construct: domain: cysteine-rich domain (CRD); also called FZD3 CRD; CHO-myc-FZDGPI; not shown: MYC tag and GPI anchor signal
T1 sequence (looked up): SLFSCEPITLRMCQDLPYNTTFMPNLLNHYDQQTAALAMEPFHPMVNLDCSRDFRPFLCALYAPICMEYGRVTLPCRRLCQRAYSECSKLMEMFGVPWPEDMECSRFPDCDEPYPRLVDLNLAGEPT
assay-explanation: flow cytometry, CHO-CRD cells;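 also: flow cytometry of Fab binding to CHO cells overexpressing a Frizzled CRD, with binding defined as median fluorescence over twice that of CHO cells lacking any Frizzled CRD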
I'd appreciate it if you could supply median fluorescence values for the items below.

binder	median fluorescence
Fab-2899 (Fab, V domains shown, Fab; also called Fv-2899) VH: EVQLVESGGGLVQPGGSLRLSCAASGFNLYYYYMHWVRQAPGKGLEWVASIYPSSGSTSYADSVKGRFTISADTSKNTAYLQMNSLRAEDTAVYYCARGALDYWGQGTLVTVSS VL: DIQMTQSPSSLSASVGDRVTITCRASQSVSSAVAWYQQKPGKAPKLLIYSASSLYSGVPSRFSGSRSGTDFTLTISSLQPEDFATYYCQQWYSSYGLITFGQGTKVEIK	7.91

For each of the binders below, note its median fluorescence.
1. Fab-2907 (Fab, V domains shown, Fab; also called Fv-2907) VH: EVQLVESGGGLVQPGGSLRLSCAASGFNIYSSYMHWVRQAPGKGLEWVASISSYSGSTYYADSVKGRFTISADTSKNTAYLQMNSLRAEDTAVYYCARSSWGAYIVSYGFDYWGQGTLVTVSS VL: DIQMTQSPSSLSASVGDRVTITCRASQSVSSAVAWYQQKPGKAPKLLIYSASSLYSGVPSRFSGSRSGTDFTLTISSLQPEDFATYYCQQVGYWWGLITFGQGTKVEIK
2. Fab-2918 (Fab, V domains shown, Fab; also called Fv-2918) VH: EVQLVESGGGLVQPGGSLRLSCAASGFNLSYSSIHWVRQAPGKGLEWVASIYSSYSSTSYADSVKGRFTISADTSKNTAYLQMNSLRAEDTAVYYCARFGYWAIDYWGQGTLVTVSS VL: DIQMTQSPSSLSASVGDRVTITCRASQSVSSAVAWYQQKPGKAPKLLIYSASSLYSGVPSRFSGSRSGTDFTLTISSLQPEDFATYYCQQAFGASLFTFGQGTKVEIK

1. 3.79
2. 3.55
